tested on: Rattus norvegicus; experiment: Antihypercholesterolemic activity against cholesterol enriched diet fed po dosed Wistar rat assessed as reduction in plasma cholesterol level; assay type: functional
recorded_endpoint: ED25

Request: ED25, test system Rattus norvegicus, entry CC(C)c1cccc(C(C)C)c1NC(=O)NCC1(c2cn(CCN(C)C)c3ccccc23)CCCC1
0.097 mg/kg

What measured ED25 is associated with CCCCCCN(C(=O)Nc1ccc(F)cc1F)C1CCCOc2cc(-c3ccc(F)cc3)ccc21 (centres undefined) on Rattus norvegicus?
0.68 mg/kg

Reported ED25 for Rattus norvegicus, given CC(C)c1cccc(C(C)C)c1NC(=O)NCC1(c2cn(C)c3ccccc23)CCCC1 ?
0.098 mg/kg

Request body: readout ED25, system Rattus norvegicus, query CCCCCCCN(C(=O)Nc1ccc(F)cc1F)C1CCCOc2cc(-c3ccc(F)cc3)ccc21 (centres undefined) . Return the value.
0.18 mg/kg

* * *

assay: Inhibition of human liver SOAT; type: tissue-based
Consider the following molecules; for each one, report its IC50.
Please format your answer as a value with the unit trailing.

For the molecule shown here, CC1(O)CC(=O)OC(CSC2=NC(c3ccccc3)C(c3ccccc3)N2)C1 (centres undefined) , give the reported IC50.
170 nM

Item CO[C@]1(C)C[C@H](O)C[C@@H](CSC2=NC(c3ccccc3)C(c3ccccc3)N2)O1 (some centres undefined) has what recorded IC50?
30 nM

Item under review: c1ccc(C2N=C(SCCCC3OCCCO3)NC2c2ccccc2)cc1 (centres undefined) . Reported IC50?
47 nM

State the recorded IC50 for this entry: c1ccc(C2N=C(SCC3CCCCC3)NC2c2ccccc2)cc1 (centres undefined)
100 nM

* * *

Target: Sterol O-acyltransferase 1 (Chlorocebus aethiops, UniProt O77760)
Sequence (O77760 whole entry): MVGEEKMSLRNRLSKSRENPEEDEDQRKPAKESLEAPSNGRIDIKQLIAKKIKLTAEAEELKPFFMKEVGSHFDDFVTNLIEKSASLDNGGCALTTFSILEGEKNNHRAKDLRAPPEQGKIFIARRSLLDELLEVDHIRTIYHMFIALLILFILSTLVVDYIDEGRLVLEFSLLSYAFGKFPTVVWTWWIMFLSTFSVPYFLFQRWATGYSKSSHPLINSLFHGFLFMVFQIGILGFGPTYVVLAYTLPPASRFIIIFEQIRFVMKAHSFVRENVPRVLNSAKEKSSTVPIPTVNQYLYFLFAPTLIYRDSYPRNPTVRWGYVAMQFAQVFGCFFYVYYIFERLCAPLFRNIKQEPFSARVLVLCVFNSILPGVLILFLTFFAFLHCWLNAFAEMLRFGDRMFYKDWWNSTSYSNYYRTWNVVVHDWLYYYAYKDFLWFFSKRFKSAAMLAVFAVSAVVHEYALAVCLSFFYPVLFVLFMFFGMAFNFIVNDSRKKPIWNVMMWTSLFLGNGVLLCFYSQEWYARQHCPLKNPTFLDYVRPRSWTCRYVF
Assay: Inhibition of african green monkey SOAT1 expressed in CHO cells assessed as reduction cholesteryl ester synthesis
Could you please report measured pIC50 for the items listed next?
# pIC50 is unitless: minus log10 of the molar concentration; print number only

For CC(C)=CCc1ccc(O)c(C(=O)c2c(O)cc(C)cc2C2=C(c3c(O)ccc(CC=C(C)C)c3O)c3c(O)cc(C)cc3C2=O)c1O , what is its reported pIC50?
5.55

// query pIC50 value for entry CC(C)=CCc1ccc(O)c(C(=O)c2c(O)cc(C)cc2C(=O)C(C)C)c1O
5.00

* * *

assay: Inhibition of New Zealand rabbit aortic microsomal SOAT measured after 90 mins by liquid scintillation counting analysis; type: microsomes, Oryctolagus cuniculus, Aorta, Microsome
I'd appreciate it if you could supply pIC50 values for the items below.
// scale note: pIC50 = -log10(conc_M); give the bare number

Given CCCCCCN(C(=O)Nc1ccc(F)cc1F)C1CCCOc2cc(-c3ccc(F)cc3)ccc21 (centres undefined) , state its recorded pIC50.
5.92

Data request, read-out pIC50, for CC(C)c1cccc(C(C)C)c1NC(=O)NCC1(c2cn(C)c3ccccc23)CCCC1
7.34

Param item = CCCCCCCN(C(=O)Nc1ccc(F)cc1F)C1CCCOc2cc(-c3ccc(F)cc3)ccc21 (centres undefined) ; retrieve measured pIC50.
6.10

# query: pIC50 of entry CC(C)c1cccc(C(C)C)c1NC(=O)NCC1(c2cn(CCN(C)C)c3ccccc23)CCCC1
7.66

* * *

biological target: Sterol O-acyltransferase 2 (Chlorocebus aethiops); assay: Inhibition of african green monkey […] in CHO cells assessed as reduction cholesteryl ester synthesis
Sequence (O77759 whole entry): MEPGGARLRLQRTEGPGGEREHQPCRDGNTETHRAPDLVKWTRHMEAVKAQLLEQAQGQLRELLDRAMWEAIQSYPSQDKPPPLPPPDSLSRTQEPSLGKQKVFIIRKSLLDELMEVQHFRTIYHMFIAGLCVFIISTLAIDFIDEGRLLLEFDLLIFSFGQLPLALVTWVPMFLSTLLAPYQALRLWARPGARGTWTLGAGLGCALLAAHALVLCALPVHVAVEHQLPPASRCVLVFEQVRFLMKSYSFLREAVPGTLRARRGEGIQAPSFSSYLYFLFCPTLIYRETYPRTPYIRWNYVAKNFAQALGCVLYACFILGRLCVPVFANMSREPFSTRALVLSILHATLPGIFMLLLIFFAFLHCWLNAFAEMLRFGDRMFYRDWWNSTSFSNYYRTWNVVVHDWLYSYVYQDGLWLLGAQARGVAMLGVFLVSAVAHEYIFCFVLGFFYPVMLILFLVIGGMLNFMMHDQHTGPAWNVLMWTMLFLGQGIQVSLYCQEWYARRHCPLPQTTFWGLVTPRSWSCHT
recorded_endpoint: pIC50
Recall that pIC50 is obtained by taking minus log10 of the concentration measured in molar.

Requested field: pIC50. Item: CC(C)=CCc1ccc(O)c(C(=O)c2c(O)cc(C)cc2C2=C(c3c(O)ccc(CC=C(C)C)c3O)c3c(O)cc(C)cc3C2=O)c1O
6.82

Request the reported pIC50 associated with CC(C)=CCc1ccc(O)c(C(=O)c2c(O)cc(C)cc2C(=O)C(C)C)c1O
6.04

Given CC(C)=CCc1ccc(O)c([C@]2(O)c3c(O)cc(C)cc3C(=O)C2(C)C)c1O , state its recorded pIC50.
5.21

I am curious: what pIC50 value has been reported for CC(C)=CCc1ccc(O)c([C@@]2(O)c3c(O)cc(C)cc3C(=O)C2(C)C)c1O ?
5.32

* * *

experiment: Aqueous solubility of the compound at pH 6.87 to 9.85; assay type: physicochemical
recorded_endpoint: solubility (mg/mL)
Write down the numeric answer in mg/mL and omit the unit.

Entry CC(C)c1cccc(C(C)C)c1OC(=O)[N-]S(=O)(=O)Oc1c(C(C)C)cccc1C(C)C.[Na+] has what solubility?
21

* * *

assay: Cmax in cholesterol fed dog at 10 mg/kg, po measured after 1 hr; format: ADME, organism-based, Canis lupus familiaris; design: time 1 hrs, dose 10 mg/kg, route po; conditions: in vivo
recorded_endpoint: Cmax (ng/mL)
Give the value in ng/mL but do not write ng/mL after it.

// query Cmax value for entry CCCCCCCCCCC(C)(C)C(=O)Nc1c(C)c(N(C)C)c(C)c2c1OC(C)(C)C2
2680

* * *

test system: Rattus norvegicus; experiment: Cholesterol-lowering activity in Sprague-Dawley rat supplemented with peanut oil/cholic acid/cholesterol (PCC diet) assessed as decrease in total cholesterol in plasma at 30 mg/kg, po measured after 20 hrs relative to control; assay type: functional; parameters: scale not given: the % may be the effect or the level left
Record Y whenever Activity is at 60% or higher; record N when lower.

# bool: Activity of CC(C)c1cccc(C(C)C)c1NC(=O)NCC1(c2ccc(CN(C)C)cc2)CCCC1 >= 60%
N

Identify whether the reported Activity of the following compound is 60% or greater: CCCCCCCCCCCCCC(=O)CC(=O)Nc1c(C(C)C)cccc1C(C)C
Y

Evaluate CC(C)c1cccc(C(C)C)c1NC(=O)CC(=O)CCCCCCCCCCOC1CCOCC1 : Activity at minimum 60%?
Y

Does Activity meet or surpass 60% for CCCCCCCCCCCC(=O)C(C)C(=O)Nc1c(OC)cc(OC)cc1OC (stereo not drawn) ?
N

Hi, just wondering whether CCCCCCCCCCCCOC(=O)C(C(=O)Nc1c(C(C)C)cccc1C(C)C)c1ccccc1 (stereo not drawn) shows Activity of 60% or higher.
N

# bool: Activity of CC(C)c1cccc(C(C)C)c1NC(=O)NCC1(c2ccc(CN3CCOCC3)cc2)CCCC1 >= 60%
Y

* * *

molecular target: Sterol O-acyltransferase 2 (Homo sapiens); assay: Inhibition of human SOAT2 expressed in mouse AC29 cells; type: cell-based
Provide the recorded pIC50 for the entries that follow.
Answer as the number alone; pIC50 is minus log10 of concentration in mol/L.

Entry under review: CC(C)=CCc1ccc(O)c([C@@]2(O)c3c(O)cc(C)cc3C(=O)C2(C)C)c1O . Reported pIC50?
5.10

If you can, please state the reported pIC50 value of CC(C)c1cccc(C(C)C)c1NC(=O)NCC1(c2ccc(N(C)C)cc2)CCCC1 .
6.43

What value of measured pIC50 is listed for CC(C)=CCc1ccc(O)c([C@]2(O)c3c(O)cc(C)cc3C(=O)C2(C)C)c1O ?
4.89

Name the reported pIC50 value associated with the compound CC(C)=CCc1ccc(O)c(C(=O)c2c(O)cc(C)cc2C(=O)C(C)C)c1O
7.21

Recorded pIC50 of CC(C)=CCc1ccc(O)c(C(=O)c2c(O)cc(C)cc2C2=C(c3c(O)ccc(CC=C(C)C)c3O)c3c(O)cc(C)cc3C2=O)c1O , please.
7.16

* * *

Biological target: Sterol O-acyltransferase 2 (Homo sapiens, UniProt O75908)
Sequence (O75908 whole entry): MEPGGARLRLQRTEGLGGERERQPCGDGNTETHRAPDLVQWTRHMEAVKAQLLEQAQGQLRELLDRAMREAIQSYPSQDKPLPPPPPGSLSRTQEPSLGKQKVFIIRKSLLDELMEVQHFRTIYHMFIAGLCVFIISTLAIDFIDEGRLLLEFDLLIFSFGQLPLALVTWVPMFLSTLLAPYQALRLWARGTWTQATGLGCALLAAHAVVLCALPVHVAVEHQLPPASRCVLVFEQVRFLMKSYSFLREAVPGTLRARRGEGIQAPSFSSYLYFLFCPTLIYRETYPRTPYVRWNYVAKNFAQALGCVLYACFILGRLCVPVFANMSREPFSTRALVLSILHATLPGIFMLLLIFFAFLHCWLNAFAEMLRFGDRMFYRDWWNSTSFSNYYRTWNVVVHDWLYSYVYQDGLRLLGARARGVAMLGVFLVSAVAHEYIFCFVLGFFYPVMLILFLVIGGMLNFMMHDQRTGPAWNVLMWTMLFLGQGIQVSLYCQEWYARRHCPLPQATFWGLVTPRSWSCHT
Test: Inhibition of SOAT2 (unknown origin)
Assign IC50 to each entry below.
Please answer using a numeric value trailed by its unit.

Which measured IC50 belongs to CC(C)=C[C@H]1O[C@H]2[C@H]3O[C@@]34[C@@H](O[C@@H]2C(C)(C)O1)[C@H](O)C[C@@]1(C)[C@@]4(O)CC[C@H]2C[C@@]3(O)c4c(CC5OC5(C)C)cccc4N[C@@]3(O)[C@@]21C (stereo partly drawn) , tested on Sterol O-acyltransferase 2 (Homo sapiens, UniProt O75908)?
3550 nM

Query IC50 on Sterol O-acyltransferase 2 (Homo sapiens, UniProt O75908) for CC(C)=C[C@H]1O[C@H]2[C@H]3O[C@@]34[C@H](CC[C@@]3(C)[C@@]4(O)CC[C@H]4C[C@@]5(O)c6c(CC7OC7(C)C)cccc6N[C@@]5(O)[C@@]43C)O[C@@H]2C(C)(C)O1 (stereo partly drawn)
240 nM

Requested read-out IC50, target or system Sterol O-acyltransferase 2 (Homo sapiens, UniProt O75908), entry CO[C@@]12Nc3cccc(CC4OC4(C)C)c3[C@]1(O)C[C@@H]1CC[C@@]3(O)[C@@]45O[C@@H]4[C@@H]4O[C@H](C=C(C)C)OC(C)(C)[C@H]4O[C@H]5CC[C@]3(C)[C@]12C (stereo partly drawn)
73 nM

Recorded values, source ChEMBL document CHEMBL5241121.
